# Tested on: FXR:RXRa (NR concentration 270 nM, RXRa partner concentration 90 nM)
# Test: PBM binding z-score (relative to random genomic background probes); higher = stronger binding; sequences stand for … in GC…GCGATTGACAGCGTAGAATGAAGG

Sequence record	Experimental system	PBM binding z-score
CGAACTAGGTCAGATCAGGACAGTGAAGGATGAT	FXR:RXRa (NR concentration 270 nM, RXRa partner concentration 90 nM)	2.96
CGAACTAGGTCCTCCAGGACAGTGAATACATTGA	FXR:RXRa (NR concentration 270 nM, RXRa partner concentration 90 nM)	-0.16
ACTAGCAGGCCCAGTTTGGGTCACTCAAACAAAG	FXR:RXRa (NR concentration 270 nM, RXRa partner concentration 90 nM)	-0.0555
ACAGACAGGTGATGAAGGTAACTGAGGCTATCAT	FXR:RXRa (NR concentration 270 nM, RXRa partner concentration 90 nM)	0.003
CCTACTAGGCCAAGGTCATTGATCAGTCAAAGCA	FXR:RXRa (NR concentration 270 nM, RXRa partner concentration 90 nM)	3.42
AGAGTGAGGTTAAGATCAGGGAAACAGAATACAT	FXR:RXRa (NR concentration 270 nM, RXRa partner concentration 90 nM)	2.54
GCATATAGGTAATACAAGGTGAAAGGCCGATTGT	FXR:RXRa (NR concentration 270 nM, RXRa partner concentration 90 nM)	0.496
CGAACGAGGGGATGAGTTGATAGCAAATGCCGAT	FXR:RXRa (NR concentration 270 nM, RXRa partner concentration 90 nM)	0.0387
ATCTCTAGGTAAAGATAGTTAAGTGAATGCAAAT	FXR:RXRa (NR concentration 270 nM, RXRa partner concentration 90 nM)	-0.0331
CCTCGGAGGACAGAAGGTAAGAGCTGTCCGCTTT	FXR:RXRa (NR concentration 270 nM, RXRa partner concentration 90 nM)	-0.304
CGTCCAAGGTCAATGCTAGGTCAGAGAAAGCATT	FXR:RXRa (NR concentration 270 nM, RXRa partner concentration 90 nM)	6.97
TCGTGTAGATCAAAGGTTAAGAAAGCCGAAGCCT	FXR:RXRa (NR concentration 270 nM, RXRa partner concentration 90 nM)	1.91
CGAACTAGGTCATCCAGGACATTGAATACATTGA	FXR:RXRa (NR concentration 270 nM, RXRa partner concentration 90 nM)	4.43
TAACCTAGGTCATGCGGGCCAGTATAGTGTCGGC	FXR:RXRa (NR concentration 270 nM, RXRa partner concentration 90 nM)	4.19
ACATGTAGGTTAGCTGGGGTCATTCAGACTAGGC	FXR:RXRa (NR concentration 270 nM, RXRa partner concentration 90 nM)	5.12
CCAGACAGGTGAAAGGGAACTCAGTCTGGTACGC	FXR:RXRa (NR concentration 270 nM, RXRa partner concentration 90 nM)	-0.208
GGAACGAGGGCCAAGTTGATAGCATCTGTCGACG	FXR:RXRa (NR concentration 270 nM, RXRa partner concentration 90 nM)	-0.236
TAGCCTTGGTCATTGGGCCAGTATAGTACGCATC	FXR:RXRa (NR concentration 270 nM, RXRa partner concentration 90 nM)	-0.646
ACTATTAGTTCAGACGAGGGCAACCGATAGGTTG	FXR:RXRa (NR concentration 270 nM, RXRa partner concentration 90 nM)	1.07
TCTTGTAGATCAAGCAGGTTAAGCAAGCCTGAGT	FXR:RXRa (NR concentration 270 nM, RXRa partner concentration 90 nM)	0.175
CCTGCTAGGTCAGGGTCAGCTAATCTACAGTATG	FXR:RXRa (NR concentration 270 nM, RXRa partner concentration 90 nM)	3.6
CCAAACAGGTGAAAGGTAACTCAGTCTGGTACGC	FXR:RXRa (NR concentration 270 nM, RXRa partner concentration 90 nM)	0.642
GCTTGTTGGTCAGTAAAAGGTCACACACCGGTCG	FXR:RXRa (NR concentration 270 nM, RXRa partner concentration 90 nM)	3.14
CCTCGGAGGCCAGAAGGTCAGAGCTGTCCGCTTT	FXR:RXRa (NR concentration 270 nM, RXRa partner concentration 90 nM)	1.46
GGAACGAGGGCAAAGTTGATATCATCTGTCGACG	FXR:RXRa (NR concentration 270 nM, RXRa partner concentration 90 nM)	1.25
CCTACTGGGCCATCAGGTCATCGATATCAACGTT	FXR:RXRa (NR concentration 270 nM, RXRa partner concentration 90 nM)	1.37
TCTTGTAGATCAATAGAGGATAAGAAAGTGCGCT	FXR:RXRa (NR concentration 270 nM, RXRa partner concentration 90 nM)	0.574
TTATATAGGTAAAAGGTGAAAGTCGGTGTGGTAA	FXR:RXRa (NR concentration 270 nM, RXRa partner concentration 90 nM)	2.14
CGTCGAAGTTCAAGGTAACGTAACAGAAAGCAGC	FXR:RXRa (NR concentration 270 nM, RXRa partner concentration 90 nM)	2.59
CCTTACGGGTCACTCCAGATTATAGCATCGGAGT	FXR:RXRa (NR concentration 270 nM, RXRa partner concentration 90 nM)	4.83
CCTCCAAGGTCAGAGAGGTCAGTGAATGCCGAGT	FXR:RXRa (NR concentration 270 nM, RXRa partner concentration 90 nM)	5.62
TCTTGTATATCAACAGGAGGTTAAGAAAGATCGA	FXR:RXRa (NR concentration 270 nM, RXRa partner concentration 90 nM)	0.413
TCATATAGGTAAACAGGTGAAGGTCCGTAAGTTA	FXR:RXRa (NR concentration 270 nM, RXRa partner concentration 90 nM)	0.526
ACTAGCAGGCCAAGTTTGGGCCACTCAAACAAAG	FXR:RXRa (NR concentration 270 nM, RXRa partner concentration 90 nM)	-0.478
AGAACGAGGGCGATGAGTTGATAGCACGGGTGGC	FXR:RXRa (NR concentration 270 nM, RXRa partner concentration 90 nM)	-0.358
TCGAGTAGGTTACCATTGGGGCATTCAGCTTTCT	FXR:RXRa (NR concentration 270 nM, RXRa partner concentration 90 nM)	0.101
CCTACTGGGCCACGAAAGGTCATTGGTTCAGTGA	FXR:RXRa (NR concentration 270 nM, RXRa partner concentration 90 nM)	3.88
GGAACGAGGGCAAGATGATAGCAGAGTTTGATGG	FXR:RXRa (NR concentration 270 nM, RXRa partner concentration 90 nM)	0.506
CGAACTAGGTCATCCAGGGCAGTGAATACATTGA	FXR:RXRa (NR concentration 270 nM, RXRa partner concentration 90 nM)	4.8
CCTATTGGGCCATTCAGAGGTCATTGATCATATG	FXR:RXRa (NR concentration 270 nM, RXRa partner concentration 90 nM)	3
TCGAGCAGGTTACCAATGGGGCATTCAGCTTTCT	FXR:RXRa (NR concentration 270 nM, RXRa partner concentration 90 nM)	0.00101

Recorded values, source the supplement of paper PMC6555819.
